Target: GST-ANAC019 NAC domain (Arabidopsis thaliana, UniProt Q9C932 14-162)
Sequence: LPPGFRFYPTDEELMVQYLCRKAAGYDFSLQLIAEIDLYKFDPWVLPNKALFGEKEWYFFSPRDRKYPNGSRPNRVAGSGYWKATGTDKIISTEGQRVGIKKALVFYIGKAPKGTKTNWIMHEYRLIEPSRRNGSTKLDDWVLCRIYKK
Assay: universal protein binding microarray (PBM); transcription factors of Arabidopsis thaliana; high values mean tight binding
Settings: protein: recombinant; tags: GST; chain copies: 2; dsDNA, one strand shown
Please mark label 1 if the recorded binding signal is equal to or greater than 0.09 E-score, and label 0 if it falls below.

Example cases with answers are listed next.
CACTCAAC
label 1
AGAAGCAA
label 0
CCAGTCAA
label 0
AACGTGTA
label 1
AGTCCACG
label 0

Query block: State whether the measured binding signal reaches 0.09 E-score, counting equality as reaching it, for "TGCGTGAA"
Result block: label 1

Query block: State whether the measured binding signal reaches 0.09 E-score, counting equality as reaching it, for "GCGTAAAA"
Result block: label 1

Query block: State whether the measured binding signal reaches 0.09 E-score, counting equality as reaching it, for "AAACGTAA"
Result block: label 1

Query block: State whether the measured binding signal reaches 0.09 E-score, counting equality as reaching it, for "CCACGCTA"
Result block: label 1

Query block: State whether the measured binding signal reaches 0.09 E-score, counting equality as reaching it, for "GTTAAGTA"
Result block: label 1
